# EXPERIMENTAL_PROTOCOL: Intact half-life during simulated gastric fluid (SGF) digestion
# CONDITION: SGF pH 1.5, pepsin:polypeptide 1:20 w/w, 37° C.; produced in E. coli unless otherwise noted
OUTCOME_MEASURE: SGF Half-life (t½) (s)
Give bare numbers, in s.

Some entries whose results are on file:
INSERT INTO assay_data (substance, reported) VALUES
  ('SEQID-00215: nutritive polypeptide (KKLLKDVEVLSQRLEEKALAYDKLEKTKTRLQQELDDLLVDLDHQRQIVSNLEKK; listed as Bos taurus)', 120),
  ('SEQID-00212: nutritive polypeptide (LEEAKKKLLKDVEVLSQRLEEKALAYDKLEKTKTRLQQELDDLLVDLDHQ; listed as Bos taurus)', 18),
  ('SEQID-00240: nutritive polypeptide naturally produced in Cow, recombinantly expressed in E. coli (DLEGSLEQEKKLRMDLERAKRKLEGDLKLAQESTMDIENDKQQLDEKLKK; listed as Bos taurus)', 42),
  ('SEQID-00143: nutritive polypeptide (LYLEEVSKNLVEINPLKLEVKAKPWFVYTPMHGVGFDIFSTIVKKTLCLVEGK; listed as Saccharomyces cerevisiae)', 18),
  ('SEQID-00218: nutritive polypeptide (GTIENLEEAKKKLLKDVEVLSQRLEEKALAYDKLEKTKTRLQQELDDLLVDLDHQ; listed as Bos taurus)', 360);

Pending substance:
Which measured SGF Half-life (t½) value corresponds to SEQID-00237: nutritive polypeptide (EEDKVNTLTKAKTKLEQQVDDLEGSLEQEKKLRMDLERAKRKLEGDLKLA; listed as Bos taurus) ?
36
